# assayed_target: Kv11.1 (hERG) (Homo sapiens (Human))
# Sequence (Q12809 whole entry): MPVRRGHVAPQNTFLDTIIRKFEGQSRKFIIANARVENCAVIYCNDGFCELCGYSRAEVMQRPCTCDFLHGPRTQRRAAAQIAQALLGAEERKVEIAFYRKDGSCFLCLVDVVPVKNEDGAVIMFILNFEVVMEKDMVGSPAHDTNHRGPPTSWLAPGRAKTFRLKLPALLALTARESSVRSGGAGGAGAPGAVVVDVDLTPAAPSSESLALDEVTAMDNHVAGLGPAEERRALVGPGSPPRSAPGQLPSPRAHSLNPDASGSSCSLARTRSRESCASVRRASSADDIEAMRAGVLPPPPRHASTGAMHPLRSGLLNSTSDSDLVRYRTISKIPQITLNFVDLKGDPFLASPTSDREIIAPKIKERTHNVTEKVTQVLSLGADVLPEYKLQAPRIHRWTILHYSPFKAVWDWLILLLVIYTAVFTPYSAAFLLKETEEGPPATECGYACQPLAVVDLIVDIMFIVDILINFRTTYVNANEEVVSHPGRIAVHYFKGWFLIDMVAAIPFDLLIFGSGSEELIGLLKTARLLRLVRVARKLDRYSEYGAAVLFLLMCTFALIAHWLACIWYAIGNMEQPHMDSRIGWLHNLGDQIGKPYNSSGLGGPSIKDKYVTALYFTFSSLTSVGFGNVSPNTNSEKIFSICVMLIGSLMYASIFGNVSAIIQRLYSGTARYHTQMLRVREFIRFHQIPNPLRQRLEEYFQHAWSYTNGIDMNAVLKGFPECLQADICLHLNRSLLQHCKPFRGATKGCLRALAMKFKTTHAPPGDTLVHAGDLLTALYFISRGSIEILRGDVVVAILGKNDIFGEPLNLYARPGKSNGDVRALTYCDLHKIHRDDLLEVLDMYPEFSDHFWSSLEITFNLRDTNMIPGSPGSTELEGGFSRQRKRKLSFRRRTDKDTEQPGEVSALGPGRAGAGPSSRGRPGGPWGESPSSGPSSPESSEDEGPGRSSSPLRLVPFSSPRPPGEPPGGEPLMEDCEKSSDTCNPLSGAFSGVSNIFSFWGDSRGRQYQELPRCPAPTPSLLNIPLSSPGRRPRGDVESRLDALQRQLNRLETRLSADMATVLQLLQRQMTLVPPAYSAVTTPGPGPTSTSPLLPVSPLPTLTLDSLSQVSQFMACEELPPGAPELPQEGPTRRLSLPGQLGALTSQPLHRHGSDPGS
# method_description: Kv11.1 (hERG) ion channel activity (patch clamp assay), HEK293 cells transfected with hERG gene
# setup_conditions: Ki [Kv1.11 hERG], patch clamp, HEK293 transfected with hERG gene
test_readout: Ki

compound: COCCOc1ccc(C(O)c2cc(-c3ncnc4cc(N5CCOCC5)ccc34)c(F)cc2Cl)nn1 (centres unmarked)
Ki: 15 to 25 µM

compound: OC(c1ccc(F)c(-c2ncnc3cc(N4CCOCC4)ccc23)c1)c1nc(Cl)cnc1Cl (centres unmarked)
Ki: 10 to 15 µM

Report Ki for every entry below.
1. COc1ccc(C(O)c2cc(-c3ncnc4cc(N5CCOCC5)ccc34)c(F)cc2Cl)nn1 (centres unmarked)
2. COc1ccc(C(O)c2cc(-c3ncnc4cc(N5CCOCC5)ccc34)c(F)cc2F)nn1 (single isomer, unassigned) [Example 129]
3. COc1ccc(C(O)c2cc(-c3ncnc4cc(N5CCOCC5)sc34)c(F)cc2Cl)nn1 (centres unmarked)
4. OC(c1ccc(F)c(-c2ncnc3cc(N4CCOCC4)ccc23)c1)c1c(Cl)cncc1Cl (centres unmarked)
5. COc1cnc(C(O)c2ccc(F)c(-c3ncnc4cc(N5CCOCC5)ccc34)c2)c(Cl)c1 (centres unmarked)
6. COc1ccc(C(C)(O)c2cc(-c3ncnc4cc(N5CCOCC5)ccc34)c(F)cc2Cl)nn1 (centres unmarked)

10 to 15 µM
15 to 25 µM
15 to 25 µM
10 to 15 µM
10 to 15 µM
15 to 25 µM

----------
# assayed_target: Kv11.1 (hERG) (Homo sapiens (Human))
# method_description: Kv11.1 (hERG) ion channel activity (patch clamp assay), HEK293 cells transfected with hERG gene
# setup_conditions: read-out: Ki [Kv1.11 hERG]; hERG patch clamp assay (cells without asterisk)
Record form. Attribute: Ki. Fill in for each entry.

compound: NC(=O)c1cncc(C(C(N)=O)c2ccc(F)c(-c3ncnc4cc(N5CCOCC5)ccc34)c2)n1 (stereo not shown)
test_readout: Ki
value: > 25 µM

compound: COc1nccnc1C(O)c1cc(-c2ncnc3cc(N4CCOCC4)ccc23)ccc1F (stereo not shown)
test_readout: Ki
value: < 10 µM

compound: OC(c1cc(-c2ncnc3cc(N4CCOCC4)ccc23)c(F)cc1F)c1ncnc2ccoc12 (stereo not shown)
test_readout: Ki
value: > 25 µM

Report Ki for every entry below.
1. COC(c1ccc(F)c(-c2ncnc3cc(N4CCOCC4)ccc23)c1)c1nccnc1C (stereo not shown)
2. OC(c1ccc(F)c(-c2ncnc3cc(N4CCOCC4)ccc23)c1)c1ncccc1Br (stereo not shown)
3. Cc1nccnc1[C@@H](O)c1ccc(F)c(-c2ncnc3cc(N4CCOCC4)cnc23)c1
4. COc1nccnc1C(C(N)=O)c1ccc(F)c(-c2ncnc3cc(N4CCOCC4)ccc23)c1 (stereo not shown)

["> 25 µM", "< 10 µM", "> 25 µM", "> 25 µM"]

Report Ki for every entry below.
1. Cn1cnc2c(C(O)c3cc(-c4ncnc5cc(N6CCOCC6)ccc45)c(F)cc3F)ncnc21 (stereo not shown) [Example 347]
2. OC(c1cc(-c2ncnc3cc(N4CCOCC4)ccc23)ccc1F)c1ncnc2ccsc12 (stereo not shown)
3. Cc1nccnc1C(C(N)=O)c1cc(-c2ncnc3cc(N4CCOCC4)ccc23)c(F)cc1F (stereo not shown)
4. COc1ccc(C(O)c2cc(-c3ncnc4cc(N5CCOCC5)ccc34)ccc2F)nn1 (stereo not shown)
5. OC(c1ccc(F)c(-c2ncnc3cc(N4CCOCC4)ccc23)c1)c1nnc2ccccn12 (stereo not shown) [Example 399]
6. NC(=O)C(c1ccc(F)c(-c2ncnc3cc(N4CCOCC4)ccc23)c1)c1nnc(Cl)c2ccsc12 (stereo not shown)
7. OC(c1ccc(F)c(-c2ncnc3cc(N4CCOCC4)ccc23)c1)c1nccnc1C(F)(F)F (stereo not shown)
8. OC(c1cc(-c2ncnc3cc(N4CCOCC4)ccc23)c(F)cc1Cl)c1nccn2ccnc12 (stereo not shown) [Example 397]

["> 25 µM", "< 10 µM", "> 25 µM", "> 25 µM", "> 25 µM", "< 10 µM", "> 25 µM", "> 25 µM"]

# lookup: Ki of Cc1nccnc1C(C(N)=O)c1cc(-c2ncnc3cc(N4CCOCC4)ccc23)c(F)cc1Cl (stereo not shown) > 25 µM

----------
# assayed_target: DNA-PK (Homo sapiens (Human))
# method_description: DNA-PK assay (biochemical), flashplate 33P-ATP kinase assay
# setup_conditions: biochemical DNA-PK assay
Record form. Attribute: IC50. Fill in for each entry.

compound: OC(c1ccc(F)c(-c2ncnc3cc(N4CCOCC4)ccc23)c1)c1nnc2ccccn12 (centres unmarked) [Example 344]
IC50: < 3 nM
//
compound: Cn1nc(C(C(N)=O)c2cc(-c3ncnc4cc(N5CCOCC5)ccc34)c(F)cc2Cl)ccc1=O (centres unmarked) [Example 311]
IC50: > 30 nM
//
compound: COC(c1ccc(F)c(-c2ncnc3cc(N4CCOCC4)ccc23)c1)c1nccnc1C (centres unmarked) [Example 353]
IC50: 7 to 30 nM
//
compound: OC(c1ccc(F)c(-c2ncnc3cc(N4CCOCC4)ccc23)c1)c1ncnc2ccoc12 (centres unmarked) [Example 443]
IC50: 3 to 7 nM
//
compound: COc1ccc(C(O)c2cc(-c3ncnc4cc(N5CCOCC5)ccc34)ccc2Cl)nn1 (centres unmarked) [Example 459]
IC50: 3 to 7 nM

Report IC50 for every entry below.
1. OC(c1cc(-c2ncnc3cc(N4CCOCC4)ccc23)ccc1Cl)c1ncncc1F (centres unmarked) [Example 412]
2. Cc1cncnc1C(C(N)=O)c1cc(-c2ncnc3cc(N4CCOCC4)ccc23)ccc1Cl (centres unmarked) [Example 407]
3. Cc1nccnc1C(O)c1cc(-c2ncnc3cc(N4CCOCC4)ccc23)ccc1Cl (centres unmarked) [Example 428]

["7 to 30 nM", "< 3 nM", "7 to 30 nM"]

----------
# assayed_target: DNA-PK phosphorylation at serine 2056 (Homo sapiens (Human), UniProt P78527)
# method_description: DNA-PK phosphorylation at serine 2056 (cellular), bleomycin-treated HCT116 cells, ELISA
# Format: cell-based
# setup_conditions: cellular; HCT116 cells, 10 μM bleomycin, six hours; read-out: IC50 pDNA-PK
# Experimental: HCT116 cells were cultivated at 37° C. and 10% CO2 in MEM alpha medium with 10% of foetal calf serum and 2 mM glutamine. The cells were detached from the base of the culture vessels with the aid of trypsin/EDTA, centrifuged off in centrifuge tubes, taken up in fresh medium, and the cell density was determined. […] The development of the enzymatic reaction was carried out with the aid of a chemiluminescent reagent, the chemiluminescence was measured with the aid of a Mithras LB940. […]
test_readout: IC50

# count of solved cases: 7
compound: COc1ccc(C(O)c2cc(-c3ncnc4cc(N5CCOCC5)ccc34)c(F)cc2F)c(F)c1 (centres unmarked)
assayed_target: DNA-PK phosphorylation at serine 2056 (Homo sapiens (Human), UniProt P78527)
value: 0.5 to 5 µM

compound: CCOc1cnnc(C(O)c2ccc(F)c(-c3ncnc4cc(N5CCOCC5)ccc34)c2)c1 (centres unmarked)
assayed_target: DNA-PK phosphorylation at serine 2056 (Homo sapiens (Human), UniProt P78527)
value: 5 to 10 µM

compound: OC(c1ccc(F)c(-c2ncnc3cc(N4CCOCC4)sc23)c1)c1nccnc1Cl (single isomer, unassigned) [Example 23]
assayed_target: DNA-PK phosphorylation at serine 2056 (Homo sapiens (Human), UniProt P78527)
value: 5 to 10 µM

compound: COc1cnc(C(O)c2ccc(F)c(-c3ncnc4cc(N5CCOCC5)ccc34)c2)nc1 (centres unmarked) [Example 69]
assayed_target: DNA-PK phosphorylation at serine 2056 (Homo sapiens (Human), UniProt P78527)
value: 5 to 10 µM

compound: OC(c1ccc(F)c(-c2ncnc3cc(N4CCOCC4)ccc23)c1)c1nc(Cl)cnc1Cl (centres unmarked)
assayed_target: DNA-PK phosphorylation at serine 2056 (Homo sapiens (Human), UniProt P78527)
value: < 0.5 µM

compound: OC(c1ccc(F)c(-c2ncnc3cc(N4CCOCC4)ccc23)c1)c1nccnc1OC1COC1 (centres unmarked)
assayed_target: DNA-PK phosphorylation at serine 2056 (Homo sapiens (Human), UniProt P78527)
value: 5 to 10 µM

compound: Cc1nccnc1C(O)c1ccc(F)c(-c2ncnc3cc(N4CCOCC4)ccc23)c1 (centres unmarked)
assayed_target: DNA-PK phosphorylation at serine 2056 (Homo sapiens (Human), UniProt P78527)
value: < 0.5 µM

# lookup: IC50 of CC(C#N)Oc1ccc(C(O)c2cc(-c3ncnc4cc(N5CCOCC5)ccc34)c(F)cc2Cl)nn1 (single isomer, unassigned) [Example 102] < 0.5 µM

----------
# assayed_target: DNA-PK phosphorylation at serine 2056 (Homo sapiens (Human))
# method_description: DNA-PK phosphorylation at serine 2056 (cellular), bleomycin-treated HCT116 cells, ELISA
# Assay type: cell-based
# setup_conditions: cellular; HCT116 cells, 10 μM bleomycin, six hours; read-out: IC50 pDNA-PK
pIC50: −log10 of the molar value.
Record form. Attribute: pIC50. Fill in for each entry.

# count of solved cases: 5
molecule: COc1ccc(C(O)c2cc(-c3ncnc4cc(N5CCOCC5)sc34)c(F)cc2Cl)nn1 (centres unmarked) [Example 128]
pIC50: 5.30 to 6.30
//
molecule: NCCn1nc(C(O)c2cc(-c3ncnc4cc(N5CCOCC5)ccc34)c(F)cc2Cl)ccc1=O (centres unmarked)
pIC50: 4.52 to 5.00
//
molecule: C#Cc1nc(-c2cc(C(O)c3nccs3)ccc2F)c2ccc(N3CCOCC3)cc2n1 (centres unmarked) [Example 208]
pIC50: 5.30 to 6.30
//
molecule: COc1nccnc1C(O)c1ccc(F)c(-c2ncnc3cc(N4CCOCC4)ccc23)c1 (centres unmarked) [Example 38]
pIC50: > 6.30
//
molecule: OC(c1ccnnc1)c1cc(-c2ncnc3cc(N4CCOCC4)ccc23)c(F)cc1Cl (centres unmarked)
pIC50: > 6.30

Report pIC50 for every entry below.
1. Cc1nccnc1C(O)c1cc(-c2ncnc3cc(N4CCOCC4)ccc23)c(F)cc1F (centres unmarked) [Example 85]
2. CCn1nc(C(O)c2cc(-c3ncnc4cc(N5CCOCC5)ccc34)c(F)cc2Cl)ccc1=O (centres unmarked) [Example 96]
3. C#CC(O)(c1ccc(OC)nn1)c1cc(-c2ncnc3cc(N4CCOCC4)ccc23)c(F)cc1Cl (centres unmarked)
4. COc1nnc(C(O)c2cc(-c3ncnc4cc(N5CCOCC5)ccc34)c(F)cc2Cl)cc1C (centres unmarked)
5. COc1ccnnc1C(O)c1ccc(F)c(-c2ncnc3cc(N4CCOCC4)ccc23)c1 (centres unmarked)
6. COc1cnc(Cl)c(C(O)c2ccc(F)c(-c3ncnc4cc(N5CCOCC5)ccc34)c2)n1 (centres unmarked)
7. OC(c1ccc(F)c(-c2ncnc3cc(N4CCOCC4)ccc23)c1)c1nccs1 (centres unmarked) [Example 212]

5.30 to 6.30
5.30 to 6.30
5.30 to 6.30
5.30 to 6.30
5.30 to 6.30
> 6.30
4.52 to 5.00

Report pIC50 for every entry below.
1. OC(c1ccc2nccn2n1)c1cc(-c2ncnc3cc(N4CCOCC4)ccc23)c(F)cc1F (centres unmarked) [Example 51]
2. Cc1nccnc1[C@H](O)c1ccc(F)c(-c2ncnc3cc(N4CCOCC4)ccc23)c1
3. Cc1ccc(C(O)c2ccc(F)c(-c3ncnc4cc(N5CCOCC5)ccc34)c2)nn1 (centres unmarked)

1: > 6.30; 2: > 6.30; 3: 5.30 to 6.30

Report pIC50 for every entry below.
1. COc1cncnc1C(O)c1ccc(F)c(-c2ncnc3cc(N4CCOCC4)ccc23)c1 (centres unmarked)
2. OC(c1ccc(F)c(-c2ncnc3cc(N4CCOCC4)ccc23)c1)c1ncccc1OC(F)F (centres unmarked)

> 6.30
> 6.30
